Molecular target: fatty acyl CoA:cholesterol acyl transferase (ACAT) (Rattus norvegicus)
Construct: The supernatant, containing the microsomal fraction, served as the source of the cholesterol-esterifying enzyme; from tissue; host or cells: rat adrenals, homogenate, 1000 x g supernatant containing the microsomal fraction
Sequence (O70536 1-545): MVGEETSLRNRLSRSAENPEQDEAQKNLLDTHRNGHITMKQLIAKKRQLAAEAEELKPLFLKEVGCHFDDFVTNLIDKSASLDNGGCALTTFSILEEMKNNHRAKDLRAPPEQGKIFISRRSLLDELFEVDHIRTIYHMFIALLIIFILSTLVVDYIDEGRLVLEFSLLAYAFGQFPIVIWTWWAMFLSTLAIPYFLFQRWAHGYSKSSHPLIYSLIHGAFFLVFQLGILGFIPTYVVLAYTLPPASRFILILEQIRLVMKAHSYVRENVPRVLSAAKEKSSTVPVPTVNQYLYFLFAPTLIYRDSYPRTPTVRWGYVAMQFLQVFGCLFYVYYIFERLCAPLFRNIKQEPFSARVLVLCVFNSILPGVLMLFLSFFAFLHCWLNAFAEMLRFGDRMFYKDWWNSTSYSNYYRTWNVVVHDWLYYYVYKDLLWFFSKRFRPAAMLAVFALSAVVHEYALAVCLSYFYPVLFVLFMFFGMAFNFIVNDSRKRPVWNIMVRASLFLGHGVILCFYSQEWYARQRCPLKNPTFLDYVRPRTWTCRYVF
Experiment: In vitro inhibition of fatty acyl CoA:cholesterol acyl transferase (ACAT), rat adrenal supernatant
Format: biochemical
Conditions: final concentration 5.2 μg./ml., pH 7.4, 37° C., oleoyl CoA (14C)
result.type: inhibition at 5.2 µg/mL (%)
Numbers only, in %.

- O=C(Nc1cccc(Cl)c1)N(Cc1ccccc1)Cc1ccccc1 [1,1-Dibenzyl-3-(3-chlorophenyl)urea]: 94.2
- Cc1ccccc1NC(=O)N(Cc1ccccc1)Cc1ccccc1 [1,1-Dibenzyl-3-(2-methylphenyl)urea]: 77
- O=C(Nc1cccc2ccccc12)N(Cc1ccccc1)Cc1ccccc1 [1,1-Dibenzyl-3-(2,3-dibenzophenyl)urea]: 90
- CCOc1ccc(NC(=O)N(Cc2ccccc2)Cc2ccccc2)cc1 [1,1-Dibenzyl-3-(4-ethoxyphenyl)urea]: 95.8
- Cc1cccc(NC(=O)N(Cc2ccccc2)Cc2ccccc2)c1 [1,1-Dibenzyl-3-(3-methylphenyl)urea]: 88.9
- Cc1ccc(C)c(NC(=O)N(Cc2ccccc2)Cc2ccccc2)c1 [1,1-Dibenzyl-3-(2,5-dimethylphenyl)urea]: 89.1

Batch request: inhibition at 5.2 µg/mL for each of the following compounds.
1. COc1ccc(C)cc1NC(=O)N(Cc1ccccc1)Cc1ccccc1
2. Cc1cccc(NC(=S)N(Cc2ccccc2)Cc2ccccc2)c1 [1,1-Dibenzyl-3-(3-methylphenyl)thiourea]

Key:
1. 87.8
2. 71.2

---

Molecular target: fatty acyl CoA:cholesterol acyl transferase (ACAT) (Rattus norvegicus, UniProt O70536)
Construct: The supernatant, containing the microsomal fraction, served as the source of the cholesterol-esterifying enzyme; from tissue; host or cells: rat adrenals, homogenate, 1000 x g supernatant containing the microsomal fraction
Sequence (O70536 1-545): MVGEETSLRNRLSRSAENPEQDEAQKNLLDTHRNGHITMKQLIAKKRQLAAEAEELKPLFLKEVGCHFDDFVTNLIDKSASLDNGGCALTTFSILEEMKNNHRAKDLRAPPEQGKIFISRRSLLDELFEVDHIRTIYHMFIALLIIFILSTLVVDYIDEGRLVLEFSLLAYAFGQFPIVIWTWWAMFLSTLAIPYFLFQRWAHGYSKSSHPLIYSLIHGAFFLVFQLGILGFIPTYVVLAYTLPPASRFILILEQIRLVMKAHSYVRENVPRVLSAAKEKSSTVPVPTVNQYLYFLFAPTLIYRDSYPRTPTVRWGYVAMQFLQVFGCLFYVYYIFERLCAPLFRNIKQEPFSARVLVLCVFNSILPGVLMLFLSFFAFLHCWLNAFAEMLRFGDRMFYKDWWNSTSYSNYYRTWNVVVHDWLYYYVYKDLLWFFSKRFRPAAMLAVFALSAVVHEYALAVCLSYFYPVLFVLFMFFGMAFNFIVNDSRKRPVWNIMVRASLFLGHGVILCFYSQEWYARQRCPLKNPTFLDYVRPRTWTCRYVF
Assay: In vitro inhibition of fatty acyl CoA:cholesterol acyl transferase (ACAT), rat adrenal supernatant
Assay type: biochemical
Settings: final concentration 5.2 μg./ml., pH 7.4, 37° C., oleoyl CoA (14C)
Exercise: for every item that follows, state its recorded inhibition at 5.2 µg/mL.
Give bare numbers, in %.

• COc1ccc(NC(=O)N(Cc2ccccc2)Cc2ccccc2)cc1 [1,1-Dibenzyl-3-(4-methoxyphenyl)urea] = 71.6
• O=C(Nc1cccc(C(F)(F)F)c1)N(Cc1ccccc1)Cc1ccccc1 = 94.2
• O=C(Nc1ccccc1C(F)(F)F)N(Cc1ccccc1)Cc1ccccc1 = 68.4
• Cc1cc(C)cc(NC(=O)N(Cc2ccccc2)Cc2ccccc2)c1 [1,1-Dibenzyl-3-(3,5-dimethylphenyl)urea] = 90.2
• Cc1cccc(C)c1NC(=O)N(Cc1ccccc1)Cc1ccccc1 [1,1-Dibenzyl-3-(2,6-dimethylphenyl)urea] = 56.1

Batch request: inhibition at 5.2 µg/mL for each of the following compounds.
1. O=C(O)c1ccc(NC(=O)N(Cc2ccccc2)Cc2ccccc2)cc1 [1,1-Dibenzyl-3-(4-carboxyphenyl)urea]
2. O=C(Nc1ccc(Cl)c(C(F)(F)F)c1)N(Cc1ccccc1)Cc1ccccc1
3. FC(F)(F)c1cccc(NC(=S)N(Cc2ccccc2)Cc2ccccc2)c1

Key:
14.1
92
88.6
